# System: E. Coli ATCC 25922
# assay.name: Test for evaluating antibacterial activity (E. coli), broth microdilution MIC
# Assay type: cell-based
# condition.info: Escherichia coli, ATCC25922; 35° C., 18 hours, cation-adjusted Mueller-Hinton medium
observed.property: MIC (µg/mL)

{"columns": ["compound", "value.qualifier", "reported.measurement"],
 "data": [
  ["CNc1cc(F)cc2c(O)c(C(=O)Nc3ccc(C(=O)NS(=O)(=O)N(C)C)cc3)c(=O)[nH]c12 [Example 148]", "=", 1],
  ["CNc1cccc2cc(C(=O)NC3CCN(c4nccs4)C3)c(=O)[nH]c12 (stereo not shown) [Example 23]", ">", 4],
  ["CNc1cc(F)cc2cc(C(=O)Nc3ccc(C(=O)O)cc3)c(=O)[nH]c12 [Example 33]", "=", 16],
  ["CNc1cc(F)cc2cc(C(=O)Nc3ccc(-c4nnn[nH]4)cc3)c(=O)[nH]c12 [Example 149]", ">", 8],
  ["CNc1cccc2cc(C(=O)Nc3cnc(NCCCN(CCO)CCO)nc3)c(=O)[nH]c12 [Example 41]", ">", 64],
  ["CNc1cccc2cc(C(=O)NCCc3cn4cccnc4n3)c(=O)[nH]c12 [Example 29]", ">", 64],
  ["CNc1cc(F)cc2cc(C(=O)Nc3ccc(C(=O)O)cc3CN3CCCCC3)c(=O)[nH]c12 [Example 96]", "=", 4],
  ["CCc1cc(C(=O)NCCN2CCOCC2)ccc1NC(=O)c1cc2cc(F)cc(NC)c2[nH]c1=O [Example 94]", ">", 2],
  ["CNc1cc(F)cc2c(O)c(C(=O)Nc3cncnc3)c(=O)[nH]c12 [Example 138]", "=", 32],
  ["CNc1cc(F)cc2c(O)c(C(=O)Nc3ccc(C(=O)O)cc3)c(=O)[nH]c12 [Example 117]", "=", 1]
]}
